Every entry's value here was drawn from PubChem BioAssay (NCI).

- Tested on: SNB-75 CNS
- Test protocol: NCI-60 one-dose screen, 48 h
- Measurement parameters: 10 µM unless noted
This is part of a sample that, as a whole, favours compounds with a hit. Of some 83,000 tested, about 20% had one in any assay. Calls of active or inactive are those of the source. How the source made its calls: active means growth percent below 10; inactive means the rest.
Hi! Could you answer with just one of these? 1.0 (active), 0.0 (inactive)

| Compound | Assayed target | Group |
| --- | --- | --- |
| CSc1ccc2c3c(n(C[C@H](O)CO)c(=O)c2c1)-c1ccccc1C3=O | SNB-75 CNS | 0.0 |
| Clc1ccc2nn3c4ccccc4c(OCCN4CCOCC4)nc3c2c1 | SNB-75 CNS | 0.0 |
| CC1(C)CC[C@]23CC[C@]4(C)[C@H](CC[C@@H]5[C@@]6(C)C/C(=C/O)C(=O)C(C)(C)[C@@H]6CC[C@]54C)[C@H]2[C@H]1OC3 | SNB-75 CNS | 0.0 |

Per the records of this test, what outcome belongs to `CNCC[C@H](Oc1cccc2ccccc12)c1cccs1` ?
0.0

Per the records of this test, what outcome belongs to CC12OC(CC(O)C1O)n1c3ccccc3c3c4c(c5c6ccccc6n2c5c31)C(=O)N(CCN1CCCC1)C4=O (centres undefined) ?
0.0

Per the records of this test, what outcome belongs to `C=C[C@@]1(C)CC(=O)[C@@H](C(C)(C)c2cn(C)c3ccc(Br)cc23)C[C@@H]1O[Si](C)(C)C(C)(C)C` ?
0.0

Per the records of this test, what outcome belongs to `CCN(CC)CCOc1ccc(C(=O)/C=C\c2ccc(Cl)cc2Cl)cc1` ?
0.0

Per the records of this test, what outcome belongs to O=C1C=CC2(O)OC/C(=C\c3ccccc3)C(O)=C2C1=O (centres undefined) ?
0.0

Per the records of this test, what outcome belongs to `O=c1cc(CNc2cc(F)cc(F)c2)c2ccc(I)cc2[nH]1` ?
1.0

Per the records of this test, what outcome belongs to `Cc1cn(C)cn1` ?
0.0

Per the records of this test, what outcome belongs to `O=C(NCCCCO)c1cncnc1Nc1ccc2c(ccn2Cc2cccc(F)c2)c1` ?
0.0

Per the records of this test, what outcome belongs to `COc1cc(C[C@H]2COc3cc(O)cc(O)c3C2=O)ccc1O` ?
0.0
